Molecular target: CDK1/Cyclin B (Homo sapiens)
Construct: purchased Invitrogen PR4768C
Sequence (P06493 whole entry): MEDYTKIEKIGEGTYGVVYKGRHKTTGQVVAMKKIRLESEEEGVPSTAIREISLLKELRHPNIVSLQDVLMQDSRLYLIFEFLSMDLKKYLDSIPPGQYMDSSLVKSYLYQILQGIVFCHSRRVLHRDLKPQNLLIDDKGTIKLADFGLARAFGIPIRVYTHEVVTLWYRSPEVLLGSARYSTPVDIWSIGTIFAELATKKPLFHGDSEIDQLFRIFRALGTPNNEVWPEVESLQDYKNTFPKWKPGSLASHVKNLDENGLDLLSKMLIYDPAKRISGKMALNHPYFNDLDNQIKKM
Sequence (P14635 whole entry partner): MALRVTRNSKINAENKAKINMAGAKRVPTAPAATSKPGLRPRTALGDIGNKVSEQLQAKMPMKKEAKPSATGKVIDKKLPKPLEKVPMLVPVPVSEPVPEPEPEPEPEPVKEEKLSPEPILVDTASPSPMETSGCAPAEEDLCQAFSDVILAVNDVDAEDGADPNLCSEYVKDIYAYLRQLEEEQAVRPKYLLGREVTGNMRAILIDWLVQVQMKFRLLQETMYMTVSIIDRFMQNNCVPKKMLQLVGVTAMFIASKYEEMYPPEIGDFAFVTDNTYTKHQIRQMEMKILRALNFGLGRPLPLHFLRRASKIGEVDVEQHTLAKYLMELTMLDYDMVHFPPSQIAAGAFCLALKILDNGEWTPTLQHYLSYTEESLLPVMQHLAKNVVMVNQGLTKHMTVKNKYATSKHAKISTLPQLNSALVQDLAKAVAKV
Assay: Enzymatic assay for CDK1 (FRET based LANCE Ultra kinase assay)
Assay type: biochemical
Conditions: read-out: CDK1 enzymatic activity (IC50 range)
We begin with a simple list: items and their reported IC50.

# molecule, IC50
records = [
    ("CC(C)c1cnn2c(NCc3ccccc3-c3ccc4ccccc4n3)nc(NCC[C@H](O)CN)nc12 [Compound 247]", "> 1000 nM"),
    ("CC(C)c1cnn2c(NCc3c(O)cccc3-c3cc4ccccc4[nH]3)nc(N3CCC(N)CC3)nc12 [Compound 185]", "> 1000 nM"),
    ("CC(C)c1cnn2c(NCc3ccccc3-n3ccc(CO)n3)nc(N3CCC(N)CC3)nc12 [Compound 181]", "100 to 1000 nM"),
    ("CC(C)c1cnn2c(NCc3ccccc3-c3cc4cc([N+](=O)[O-])ccc4[nH]3)nc(N3CCC(N)CC3)nc12 [Compound 121]", "> 1000 nM"),
    ("CCCc1ccccc1CNc1nc(N2CCC(N)CC2)nc2c(C(C)C)cnn12 [Compound 55]", "100 to 1000 nM"),
    ("CC(C)c1cnn2c(NCc3ccccc3-c3ccc4ccccc4n3)nc(NC[C@@H](O)CN)nc12 [Compound 248]", "> 1000 nM"),
    ("CC(C)c1cnn2c(NCc3ccccc3-c3cc4ccccc4[nH]3)nc(N3CCC(N)(CO)CC3)nc12 [Compound 129]", "> 1000 nM"),
]

----------
Target: CDK2/Cyclin A (Homo sapiens, UniProt P24941)
Construct: purchased Invitrogen PV6290
Test: Enzymatic assay for CDK2 (FRET based LANCE Ultra kinase assay)
Type: biochemical
Details: read-out: CDK2 enzymatic activity (IC50 range)
pIC50: −log10 of the molar value.

# line_notation, assay_system, pIC50
rows = [
    ("CC(C)c1cnn2c(NCc3ccccc3-n3cccn3)nc(-c3cccc(N4CCNCC4)c3)nc12", "CDK2/Cyclin A (Homo sapiens, UniProt P24941)", "< 6.00"),
    ("CC(C)c1cnn2c(NCc3c(Cl)cccc3-n3ccc(C(C)(C)O)n3)nc(N3CCC(CN)CC3)nc12", "CDK2/Cyclin A (Homo sapiens, UniProt P24941)", "< 6.00"),
    ("COc1cccc(-c2cc3ccccc3[nH]2)c1CNc1nc(N2CCC(N)CC2)nc2c(C(C)C)cnn12", "CDK2/Cyclin A (Homo sapiens, UniProt P24941)", "< 6.00"),
    ("Cc1nc2c(CNc3nc(N4CCC(N)CC4)nc4c(C(C)C)cnn34)cccc2o1", "CDK2/Cyclin A (Homo sapiens, UniProt P24941)", "6.00 to 7.00"),
]

----------
Target: CDK5/p35NCK (Homo sapiens, UniProt Q00535)
Sequence (Q00535 whole entry): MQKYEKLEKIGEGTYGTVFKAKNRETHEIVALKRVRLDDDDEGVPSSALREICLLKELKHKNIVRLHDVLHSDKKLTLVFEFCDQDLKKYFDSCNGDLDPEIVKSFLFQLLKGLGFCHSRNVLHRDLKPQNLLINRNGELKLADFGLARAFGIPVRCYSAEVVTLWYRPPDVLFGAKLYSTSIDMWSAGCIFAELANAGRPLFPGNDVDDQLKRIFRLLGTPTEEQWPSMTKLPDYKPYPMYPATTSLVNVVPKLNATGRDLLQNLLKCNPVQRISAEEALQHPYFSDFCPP
Sequence (Q15078 whole entry partner): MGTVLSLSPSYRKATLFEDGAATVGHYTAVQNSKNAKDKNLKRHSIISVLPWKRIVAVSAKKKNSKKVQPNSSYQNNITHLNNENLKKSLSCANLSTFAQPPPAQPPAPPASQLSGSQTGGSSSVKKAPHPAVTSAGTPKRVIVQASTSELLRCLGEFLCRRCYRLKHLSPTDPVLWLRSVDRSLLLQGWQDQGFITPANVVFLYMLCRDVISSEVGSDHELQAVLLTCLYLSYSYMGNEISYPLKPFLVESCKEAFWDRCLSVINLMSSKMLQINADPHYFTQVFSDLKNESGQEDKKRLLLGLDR
Test: In vitro IC50 profile for CDKs family kinase (33PanQinase radiometric assay)
Settings: CDK7 selectivity profile in CDKs family
pIC50: −log10 of the molar value.

# molecule, pIC50
rows = [
    ("CC(C)c1cnn2c(NCc3c(Cl)cccc3-n3ccc(C(C)(C)O)n3)nc(N3CCC(N)CC3)nc12 [Compound 210]", 5.32),
]

----------
Target: CDK9/CycK (Homo sapiens, UniProt P50750)
Sequence (P50750 whole entry): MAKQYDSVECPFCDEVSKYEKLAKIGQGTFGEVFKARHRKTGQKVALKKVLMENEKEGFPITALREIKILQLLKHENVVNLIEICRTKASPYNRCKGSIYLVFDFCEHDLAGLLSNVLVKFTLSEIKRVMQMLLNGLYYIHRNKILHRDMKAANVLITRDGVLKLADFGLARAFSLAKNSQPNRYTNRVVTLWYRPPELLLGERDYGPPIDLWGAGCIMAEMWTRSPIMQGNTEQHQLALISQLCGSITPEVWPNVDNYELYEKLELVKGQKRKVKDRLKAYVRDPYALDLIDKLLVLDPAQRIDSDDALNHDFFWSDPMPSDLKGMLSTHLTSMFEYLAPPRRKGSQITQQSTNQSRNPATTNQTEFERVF
Sequence (O75909 whole entry partner): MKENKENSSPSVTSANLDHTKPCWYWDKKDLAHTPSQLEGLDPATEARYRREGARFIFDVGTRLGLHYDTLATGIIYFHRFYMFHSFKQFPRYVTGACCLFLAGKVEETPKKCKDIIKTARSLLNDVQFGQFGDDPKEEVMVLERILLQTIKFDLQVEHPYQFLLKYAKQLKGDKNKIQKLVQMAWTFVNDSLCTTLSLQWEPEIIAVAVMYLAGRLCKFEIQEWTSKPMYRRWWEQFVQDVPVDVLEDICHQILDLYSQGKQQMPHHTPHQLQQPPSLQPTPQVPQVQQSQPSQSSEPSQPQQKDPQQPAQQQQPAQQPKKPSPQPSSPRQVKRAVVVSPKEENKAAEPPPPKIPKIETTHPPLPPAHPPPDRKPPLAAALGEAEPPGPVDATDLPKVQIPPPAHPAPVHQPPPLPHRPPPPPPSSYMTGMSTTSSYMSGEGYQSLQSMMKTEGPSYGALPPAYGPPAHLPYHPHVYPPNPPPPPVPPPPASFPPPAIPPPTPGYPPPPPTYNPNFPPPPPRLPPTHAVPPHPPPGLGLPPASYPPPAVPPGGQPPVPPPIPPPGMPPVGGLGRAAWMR
Test: In vitro IC50 profile for CDKs family kinase (33PanQinase radiometric assay)
Conditions: CDK7 selectivity profile in CDKs family
test_readout: IC50

# line_notation, assay_system, test_readout, result
records = [
    ("CC(C)c1cnn2c(NCc3c(Cl)cccc3-n3ccc(C(C)(C)O)n3)nc(N3CCC(N)CC3)nc12", "CDK9/CycK (Homo sapiens, UniProt P50750)", "IC50", "> 10 µM"),
]

----------
Target: CDK7/Cyclin H/MNAT1 (Homo sapiens)
Construct: purchased Invitrogen PR6749B
Sequence (P50613 whole entry): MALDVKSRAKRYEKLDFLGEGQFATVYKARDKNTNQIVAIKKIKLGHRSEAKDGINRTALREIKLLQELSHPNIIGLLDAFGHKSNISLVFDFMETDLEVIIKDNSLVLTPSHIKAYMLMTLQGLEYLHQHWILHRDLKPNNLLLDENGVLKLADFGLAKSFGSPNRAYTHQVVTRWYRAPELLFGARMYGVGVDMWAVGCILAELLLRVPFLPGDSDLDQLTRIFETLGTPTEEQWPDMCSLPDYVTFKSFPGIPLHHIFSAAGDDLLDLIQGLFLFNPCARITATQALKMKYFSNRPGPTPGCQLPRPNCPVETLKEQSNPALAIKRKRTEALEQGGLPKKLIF
Sequence (P51946 whole entry partner): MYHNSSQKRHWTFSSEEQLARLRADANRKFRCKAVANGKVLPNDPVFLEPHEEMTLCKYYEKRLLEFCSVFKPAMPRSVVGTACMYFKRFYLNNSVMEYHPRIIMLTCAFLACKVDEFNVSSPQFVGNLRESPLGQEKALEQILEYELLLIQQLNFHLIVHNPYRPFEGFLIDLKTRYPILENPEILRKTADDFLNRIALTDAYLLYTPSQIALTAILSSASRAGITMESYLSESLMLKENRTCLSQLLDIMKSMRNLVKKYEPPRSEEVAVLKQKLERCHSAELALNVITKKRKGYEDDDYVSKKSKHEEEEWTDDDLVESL
Sequence (P51948 whole entry partner): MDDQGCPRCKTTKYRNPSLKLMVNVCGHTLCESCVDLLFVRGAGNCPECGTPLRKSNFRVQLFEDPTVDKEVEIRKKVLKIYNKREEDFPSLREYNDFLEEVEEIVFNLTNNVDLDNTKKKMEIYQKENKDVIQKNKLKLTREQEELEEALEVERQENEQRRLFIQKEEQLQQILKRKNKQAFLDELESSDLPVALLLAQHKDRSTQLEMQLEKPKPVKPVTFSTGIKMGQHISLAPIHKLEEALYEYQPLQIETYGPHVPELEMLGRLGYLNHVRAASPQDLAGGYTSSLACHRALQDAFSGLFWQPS
Experiment: Enzymatic assay for CDK7 (FRET based LANCE Ultra kinase assay)
Type: biochemical
Conditions: CDK7 over CDK5
Experimental: Enzymatic Binding Assay Protocol for CDK1, CDK2, CDK5 and CDK7 Inhibition activity of the respective compound on CDK kinase under Km value of ATP was tested in FRET based The LANCE® Ultra kinase assay (Perkin Elmer), which uses a ULight™-labeled peptide substrate and an appropriate Europium-labeled anti-phospho-antibody. […] After 1 min centrifugation at 1000 rpm, Purified CDKs/Cyclin complex were added following concentrations respectively. […] Data was analyzed using XL Fit software.
test_readout: CDK5/CDK7: Selectivity of CDK7 inhibition over CDK5 inhibition

# line_notation, result
rows = [
    ("N#Cc1cnn2c(NCc3ccccc3-n3cccn3)nc(N3CCC(N)CC3)nc12", "C (C=less than 20 fold)"),
    ("CC(C)c1cnn2c(NCc3c[nH]c4ccccc34)nc(N3CCC(N)CC3)nc12", "C (C=less than 20 fold)"),
]

----------
We begin with a simple list: items and their reported IC50.
Target: CDK5/p25 (Homo sapiens)
Construct: purchased Invitrogen PR8543B
Experiment: Enzymatic assay for CDK5 (FRET based LANCE Ultra kinase assay)
Assay type: biochemical
Conditions: read-out: CDK5 enzymatic activity (IC50 range)

# compound, assay_system, IC50
records = [
    ("CC(C)c1cnn2c(NCc3ccc(Cl)c(-n4cccn4)c3)nc(N3CCC(N)CC3)nc12", "CDK5/p25 (Homo sapiens)", "100 to 1000 nM"),
    ("CC(C)c1cnn2c(NCc3ccccc3-c3cc4c(F)cccc4[nH]3)nc(N3CCC(N)CC3)nc12", "CDK5/p25 (Homo sapiens)", "< 100 nM"),
    ("CC(C)c1cnn2c(NCc3ccccc3-n3cccn3)nc(Nc3cccc(OC4CCNC4)c3)nc12 (racemic)", "CDK5/p25 (Homo sapiens)", "> 1000 nM"),
    ("CC(C)c1cnn2c(NCc3ccccc3-c3ccc4ccccc4n3)nc(N3CCC(CN)CC3)nc12", "CDK5/p25 (Homo sapiens)", "> 1000 nM"),
    ("CC(C)c1cnn2c(NCc3c(Cl)cccc3-n3ccc(CO)n3)nc(N3CCC(N)CC3)nc12", "CDK5/p25 (Homo sapiens)", "100 to 1000 nM"),
    ("CNC(=O)c1cccc(-c2cnn(-c3ccccc3CNc3nc(N4CCC(N)CC4)nc4c(C(C)C)cnn34)c2)c1", "CDK5/p25 (Homo sapiens)", "100 to 1000 nM"),
    ("CC(C)c1cnn2c(NCc3ccccc3-c3cc4ccccc4[nH]3)nc(N3CCOC(CN)C3)nc12 (racemic)", "CDK5/p25 (Homo sapiens)", "100 to 1000 nM"),
    ("CC(C)c1cnn2c(NCc3cccc4ccc(N)nc34)nc(N3CCC(N)CC3)nc12", "CDK5/p25 (Homo sapiens)", "100 to 1000 nM"),
    ("CNC(=O)c1ccc2nn(-c3ccccc3CNc3nc(N4CCC(N)CC4)nc4c(C(C)C)cnn34)cc2c1", "CDK5/p25 (Homo sapiens)", "100 to 1000 nM"),
    ("Cc1cccc(-n2ccc(C(C)(C)O)n2)c1CNc1nc(NCC2CCNCC2)nc2c(C(C)C)cnn12", "CDK5/p25 (Homo sapiens)", "> 1000 nM"),
    ("CC(C)c1cnn2c(NCc3c(Cl)cccc3-n3ccc(C(=O)NC4CCOCC4)n3)nc(N3CCC(N)CC3)nc12", "CDK5/p25 (Homo sapiens)", "100 to 1000 nM"),
    ("CC(C)c1cnn2c(NCc3cccc4ccncc34)nc(N3CCC(N)CC3)nc12", "CDK5/p25 (Homo sapiens)", "< 100 nM"),
    ("Cc1cccc(-c2cc3ccccc3[nH]2)c1CNc1nc(N2CCC(N)CC2)nc2c(C(C)C)cnn12", "CDK5/p25 (Homo sapiens)", "100 to 1000 nM"),
    ("CC(C)c1cnn2c(NCc3ccccc3-c3ccc4ccccc4n3)nc(N3CCC(N)CC3)nc12", "CDK5/p25 (Homo sapiens)", "100 to 1000 nM"),
    ("CCC(O)c1cnn2c(NCc3ccccc3-n3cccn3)nc(N3CCC(N)CC3)nc12 (racemic)", "CDK5/p25 (Homo sapiens)", "100 to 1000 nM"),
    ("CC(C)c1cnn2c(NCc3ccccc3-n3cc4ccncc4n3)nc(N3CCC(N)CC3)nc12", "CDK5/p25 (Homo sapiens)", "100 to 1000 nM"),
    ("CC(C)c1cnn2c(NCc3ccccc3-c3nc4ccccc4o3)nc(N3CCC(N)CC3)nc12", "CDK5/p25 (Homo sapiens)", "100 to 1000 nM"),
    ("CC(C)c1cnn2c(NCc3ccccc3N3Cc4ccccc4C3)nc(N3CCC(N)CC3)nc12", "CDK5/p25 (Homo sapiens)", "< 100 nM"),
    ("CC(C)c1cnn2c(NCc3cccc(Oc4ccccc4)c3)nc(N3CCC(N)CC3)nc12", "CDK5/p25 (Homo sapiens)", "> 1000 nM"),
    ("CC(C)c1cnn2c(NCc3ccccc3-c3cn4c(n3)CCCC4)nc(N3CCC(N)CC3)nc12", "CDK5/p25 (Homo sapiens)", "100 to 1000 nM"),
    ("Cc1cccc(-n2ccc(C(C)(C)O)n2)c1CNc1nc(N2CCC(N)CC2)nc2c(C(C)C)cnn12", "CDK5/p25 (Homo sapiens)", "> 1000 nM"),
    ("CC(C)c1cnn2c(NCc3c(Cl)cccc3-c3ccc4[nH]cnc4c3)nc(N3CCC(N)CC3)nc12", "CDK5/p25 (Homo sapiens)", "100 to 1000 nM"),
    ("CC(C)c1cnn2c(NCc3cccc4ccc(NC(=O)CCCN(C)C)nc34)nc(N3CCC(N)CC3)nc12", "CDK5/p25 (Homo sapiens)", "100 to 1000 nM"),
    ("CC(C)c1cnn2c(NCc3cccc4ccc(C5CC5)nc34)nc(N3CCC(N)CC3)nc12", "CDK5/p25 (Homo sapiens)", "100 to 1000 nM"),
    ("CC(C)c1cnn2c(NCc3cccc(-c4cc5ccccc5[nH]4)c3)nc(N3CCC(N)CC3)nc12", "CDK5/p25 (Homo sapiens)", "100 to 1000 nM"),
    ("CC(C)c1cnn2c(NCc3ccccc3N3CCc4ccccc43)nc(N3CCC(N)CC3)nc12", "CDK5/p25 (Homo sapiens)", "100 to 1000 nM"),
    ("CC(C)c1cnn2c(NCc3ccccc3-c3nc4ccccc4[nH]3)nc(N3CCC(N)CC3)nc12", "CDK5/p25 (Homo sapiens)", "< 100 nM"),
    ("CC(C)c1cnn2c(N[C@@H](C)c3ccccc3-n3cc(N4CCNCC4)cn3)nc(N3CCC(N)CC3)nc12", "CDK5/p25 (Homo sapiens)", "> 1000 nM"),
    ("CC(C)c1cnn2c(NCc3ccccc3-c3cc4ccccc4[nH]3)nc(NC3CCOCC3)nc12", "CDK5/p25 (Homo sapiens)", "> 1000 nM"),
    ("CC(C)c1cnn2c(NCc3c(Cl)cccc3-n3ccc(C(C)(C)O)n3)nc(N3CCC(O)(CN)CC3)nc12", "CDK5/p25 (Homo sapiens)", "> 1000 nM"),
]
